Reported kon values follow for various binders
# tested on: T1, recombinant human IL-6 (human, UniProt P05231 30-212)
# T1 construct: Flowed in solution over the captured antibodies
# T1 sequence (P05231 30-212 limits assumed): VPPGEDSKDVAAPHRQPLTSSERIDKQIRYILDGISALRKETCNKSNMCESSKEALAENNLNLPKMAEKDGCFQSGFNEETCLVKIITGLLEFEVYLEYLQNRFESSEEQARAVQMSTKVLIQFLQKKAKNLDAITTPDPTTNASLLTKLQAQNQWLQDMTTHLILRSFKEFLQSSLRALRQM
# assay protocol: SPR (Biacore), supernatant IgG on Protein A, 25 C
measured property: kon (M⁻¹ s⁻¹)

[
  {
    "binder": "anti-IL-6 antibody, heavy chain S56H, light chain WT (antibody, IgG1, V domains shown, Full IgG1 tested; V domains derived as in m2) VH: EVQLVESGGGLVQPGGSLRLSCAASGFTFSPFAMSWVRQAPGKGLEWVAKISPGGHWTYYSDTVTGRFTFSLDTSKSTAYLQMNSLRAEDTAVYYCARQLWGYYALDIWGQGTLVTVSS VL: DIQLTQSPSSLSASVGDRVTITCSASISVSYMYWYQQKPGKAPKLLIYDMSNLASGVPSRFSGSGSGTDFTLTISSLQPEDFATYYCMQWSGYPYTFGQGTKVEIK",
    "measured property": "kon",
    "unit symbol": "M⁻¹ s⁻¹",
    "recorded number": 356000
  },
  {
    "binder": "anti-IL-6 antibody, heavy chain T63K, light chain WT (antibody, IgG1, V domains shown, Full IgG1 tested; V domains derived as in m2) VH: EVQLVESGGGLVQPGGSLRLSCAASGFTFSPFAMSWVRQAPGKGLEWVAKISPGGSWTYYSDKVTGRFTFSLDTSKSTAYLQMNSLRAEDTAVYYCARQLWGYYALDIWGQGTLVTVSS VL: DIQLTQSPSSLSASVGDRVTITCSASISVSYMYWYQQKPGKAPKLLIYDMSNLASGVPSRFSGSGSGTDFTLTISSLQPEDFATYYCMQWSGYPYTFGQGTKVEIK",
    "measured property": "kon",
    "unit symbol": "M⁻¹ s⁻¹",
    "recorded number": 546000
  },
  {
    "binder": "anti-IL-6 antibody, heavy chain T28Y, light chain WT (antibody, IgG1, V domains shown, Full IgG1 tested; V domains derived as in m2) VH: EVQLVESGGGLVQPGGSLRLSCAASGFYFSPFAMSWVRQAPGKGLEWVAKISPGGSWTYYSDTVTGRFTFSLDTSKSTAYLQMNSLRAEDTAVYYCARQLWGYYALDIWGQGTLVTVSS VL: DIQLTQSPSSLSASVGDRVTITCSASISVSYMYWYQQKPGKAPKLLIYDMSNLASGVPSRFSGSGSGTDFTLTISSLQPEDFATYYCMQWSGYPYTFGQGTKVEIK",
    "measured property": "kon",
    "unit symbol": "M⁻¹ s⁻¹",
    "recorded number": 332000
  }
]
